Assay: PK profiles after IV and PO administration to BALB/c mice
Type: in vivo
Settings: BALB/c, mouse, blood, po, 20 mg/kg, PO 20 mg/kg, 1.00 h, mean; read-out: concentration in blood, Mean PO
endpoint: concentration at 1 h (ng/mL)
# value in ng/mL; strip the unit string

Need concentration at 1 h of CC(=O)c1ccc(-c2cc(C(=O)c3ccc(C(F)(F)F)cc3)n3ccccc23)cc1 , thanks. 225

====

Assay: PK profiles after IV and PO administration to BALB/c mice
Type: in vivo
Conditions: BALB/c, mouse, blood, iv, 5 mg/kg, IV 5.0 mg/kg, mean n=3; read-out: Vz_obs Vz
endpoint: Vd (L/kg)
# value in L/kg; strip the unit string

Need Vd of CC(=O)c1ccc(-c2cc(C(=O)c3ccc(C(F)(F)F)cc3)n3ccccc23)cc1 [Compound 42] , thanks. 15

====

Assay: PK profiles after IV and PO administration to BALB/c mice
Assay type: in vivo
Conditions: BALB/c, mouse, blood, 20 mg/kg; PO administration of 20 mpk
endpoint: bioavailability

Need bioavailability of CC(=O)c1ccc(-c2cc(C(=O)c3ccc(C(F)(F)F)cc3)n3ccccc23)cc1 [Compound 42] , thanks. ~18%

====

Assay: PK profiles after IV and PO administration to BALB/c mice
Format: in vivo
Conditions: BALB/c, mouse, blood, po, 20 mg/kg, PO 20 mg/kg, 3.00 h, individual animals 201-203; read-out: concentration in blood
endpoint: concentration at 3 h (ng/mL)
# value in ng/mL; strip the unit string

Need concentration at 3 h of CC(=O)c1ccc(-c2cc(C(=O)c3ccc(C(F)(F)F)cc3)n3ccccc23)cc1 [Compound 42] , thanks. 149

====

Test: PK profiles after IV and PO administration to BALB/c mice
Type: in vivo
Conditions: BALB/c, mouse, blood, po, 20 mg/kg, PO 20.0 mg/kg, mean n=3; read-out: AUC(0-∞)
endpoint: AUC(0-inf) (ng·h/mL)
# value in ng·h/mL; strip the unit string

Need AUC(0-inf) of CC(=O)c1ccc(-c2cc(C(=O)c3ccc(C(F)(F)F)cc3)n3ccccc23)cc1 [Compound 42] , thanks. 3030

====

Assay: PK profiles after IV and PO administration to BALB/c mice
Type: in vivo
Conditions: BALB/c, mouse, blood, po, 20 mg/kg, PO 20 mg/kg, 0.25 h, mean; read-out: concentration in blood, Mean PO
endpoint: concentration at 0.25 h (ng/mL)
# value in ng/mL; strip the unit string

Need concentration at 0.25 h of CC(=O)c1ccc(-c2cc(C(=O)c3ccc(C(F)(F)F)cc3)n3ccccc23)cc1 [Compound 42] , thanks. 89.9

====

Assay: PK profiles after IV and PO administration to BALB/c mice
Assay type: in vivo
Settings: BALB/c, mouse, blood, iv, 5 mg/kg, IV 5.0 mg/kg, individual animals; read-out: Vss_obs Vss
endpoint: Vd (L/kg)
# value in L/kg; strip the unit string

Need Vd of CC(=O)c1ccc(-c2cc(C(=O)c3ccc(C(F)(F)F)cc3)n3ccccc23)cc1 , thanks. 8.88

====

Recorded Normalized cell viability values for a group of molecules are listed next.
System: THP-1 cells
Assay: Cell viability assay (CellTiter Clo) in THP-1 cells
Assay type: cell-based, Human
Conditions: THP-1 cells, 20 μM of each compound, co-treated with cGAMP (1 μg/ml)
// return a plain number; no unit text

- mol_smiles: "CC(=O)c1cc(-c2ccc(C(F)(F)F)cc2)c2ccccn12"
  reported: 1.22
- mol_smiles: "CC(=O)c1ccc(-c2cc(C(=O)c3ccccc3)n3ccc(C(F)(F)F)cc23)cc1"
  reported: 1.20
- mol_smiles: "COc1ccc(C(=O)c2cc(-c3ccc(N(C)C)cc3)c3cc(C(F)(F)F)ccn23)cc1"
  reported: 1.17

# next molecule below
Need Normalized cell viability of CC(=O)c1ccc(-c2cc(C(=O)c3ccccc3)n3ccc(C(C)=O)cc23)cc1 , thanks. 1.17
